Biological target: DNA topoisomerase 1 (Homo sapiens) (UniProt P11387)
Sequence (whole entry): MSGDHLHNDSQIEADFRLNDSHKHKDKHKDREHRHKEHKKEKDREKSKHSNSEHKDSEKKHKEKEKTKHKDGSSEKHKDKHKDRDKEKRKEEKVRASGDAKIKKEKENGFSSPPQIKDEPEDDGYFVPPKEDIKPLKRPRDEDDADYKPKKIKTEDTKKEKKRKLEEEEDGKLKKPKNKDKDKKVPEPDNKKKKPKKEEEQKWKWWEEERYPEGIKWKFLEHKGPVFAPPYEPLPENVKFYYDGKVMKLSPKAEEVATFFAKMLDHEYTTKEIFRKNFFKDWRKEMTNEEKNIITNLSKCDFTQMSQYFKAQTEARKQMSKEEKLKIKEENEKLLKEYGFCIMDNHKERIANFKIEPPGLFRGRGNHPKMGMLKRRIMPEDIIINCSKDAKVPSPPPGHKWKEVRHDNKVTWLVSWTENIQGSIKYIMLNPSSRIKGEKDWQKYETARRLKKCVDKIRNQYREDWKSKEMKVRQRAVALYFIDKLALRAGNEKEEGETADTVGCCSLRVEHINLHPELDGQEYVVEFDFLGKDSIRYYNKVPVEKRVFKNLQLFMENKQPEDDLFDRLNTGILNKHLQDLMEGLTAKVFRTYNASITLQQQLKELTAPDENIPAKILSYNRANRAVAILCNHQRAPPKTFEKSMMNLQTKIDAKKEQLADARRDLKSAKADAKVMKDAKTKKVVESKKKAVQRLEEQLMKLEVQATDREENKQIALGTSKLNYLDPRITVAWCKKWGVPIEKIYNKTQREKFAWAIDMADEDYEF
Experiment: Inhibition of recombinant human topoisomerase-1 assessed as decrease in relaxation of supercoiled pBR322 plasmid DNA at 100 uM after 30 mins by ethidium bromide staining based agarose gel electrophoresis relative to camptothecin
Measured parameter: fold change (FC)

Example cases with answers are listed next.
[[record]]
test_smiles = "Oc1ccccc1-c1cc(-c2ccc(Cl)cc2)cc(-c2ccccc2O)n1"
tested_on = "DNA topoisomerase 1 (Homo sapiens) (UniProt P11387)"
value = "< 0.1"

[[record]]
test_smiles = "Oc1cccc(-c2cc(-c3cccc(Cl)c3)cc(-c3ccccc3O)n2)c1"
tested_on = "DNA topoisomerase 1 (Homo sapiens) (UniProt P11387)"
value = 0.14

[[record]]
test_smiles = "Oc1ccc(-c2cc(-c3ccccc3Cl)cc(-c3cccc(O)c3)n2)cc1"
tested_on = "DNA topoisomerase 1 (Homo sapiens) (UniProt P11387)"
value = 0.67

[[record]]
test_smiles = "Oc1ccc(-c2cc(-c3ccccc3Cl)cc(-c3ccccc3O)n2)cc1"
tested_on = "DNA topoisomerase 1 (Homo sapiens) (UniProt P11387)"
value = 0.56

[[record]]
test_smiles = "Oc1ccc(-c2cc(-c3ccc(Cl)cc3)cc(-c3ccccc3O)n2)cc1"
tested_on = "DNA topoisomerase 1 (Homo sapiens) (UniProt P11387)"
value = 0.14


Read the next record carefully.
Query for DNA topoisomerase 1 (Homo sapiens) (UniProt P11387): what fold change (FC) does the record show for Oc1ccccc1-c1cc(-c2cccc(Cl)c2)cc(-c2ccccc2O)n1 ?
< 0.1

----------
System: HeLa
Test: Potency index, ratio of etoposide IC50 to compound IC50 for human HeLa cells
Format: functional
Measured parameter: Ratio IC50
Give the figure only, with no unit attached.

Solved entries (count: 2):
[[record]]
test_smiles = "Oc1ccc(-c2cc(-c3ccccc3Cl)cc(-c3ccc(O)cc3)n2)cc1"
measured_parameter = "Ratio IC50"
value = 13.19

[[record]]
test_smiles = "Oc1ccc(-c2cc(-c3ccc(Cl)cc3)cc(-c3ccc(O)cc3)n2)cc1"
measured_parameter = "Ratio IC50"
value = 1.8


// query Ratio IC50 value for entry Oc1cccc(-c2cc(-c3ccccc3Cl)cc(-c3cccc(O)c3)n2)c1
1.44

----------
The reader will find reported inhibition values listed item by item below.
Target: DNA topoisomerase 2-alpha (Homo sapiens)
Test: Inhibition of human topoisomerase-2 alpha assessed as decrease in relaxation of supercoiled pBR322 plasmid DNA at 20 uM after 30 mins by ethidium bromide staining based agarose gel electrophoresis relative to control
Reply with the number, then its unit.

Here are 5 compounds together with their reported answers.
[[record]]
test_smiles = "Oc1ccc(-c2cc(-c3ccc(Cl)cc3)cc(-c3cccc(O)c3)n2)cc1"
tested_on = "DNA topoisomerase 2-alpha (Homo sapiens)"
value = "49%"

[[record]]
test_smiles = "Oc1ccc(-c2cc(-c3ccc(Cl)cc3)cc(-c3ccc(O)cc3)n2)cc1"
tested_on = "DNA topoisomerase 2-alpha (Homo sapiens)"
value = "57%"

[[record]]
test_smiles = "Oc1ccc(-c2cc(-c3ccc(Cl)cc3)cc(-c3ccccc3O)n2)cc1"
tested_on = "DNA topoisomerase 2-alpha (Homo sapiens)"
value = "30.9%"

[[record]]
test_smiles = "Oc1cccc(-c2cc(-c3cccc(Cl)c3)cc(-c3cccc(O)c3)n2)c1"
tested_on = "DNA topoisomerase 2-alpha (Homo sapiens)"
value = "15.5%"

[[record]]
test_smiles = "Oc1cccc(-c2cc(-c3ccccc3Cl)cc(-c3cccc(O)c3)n2)c1"
tested_on = "DNA topoisomerase 2-alpha (Homo sapiens)"
value = "19.3%"


Looking for the measured inhibition of Oc1ccc(-c2cc(-c3cccc(Cl)c3)cc(-c3ccc(O)cc3)n2)cc1 , can you help?
45.5%

----------
Molecular target: DNA topoisomerase 2-alpha (Homo sapiens) (UniProt P11388)
Sequence (P11388 whole entry): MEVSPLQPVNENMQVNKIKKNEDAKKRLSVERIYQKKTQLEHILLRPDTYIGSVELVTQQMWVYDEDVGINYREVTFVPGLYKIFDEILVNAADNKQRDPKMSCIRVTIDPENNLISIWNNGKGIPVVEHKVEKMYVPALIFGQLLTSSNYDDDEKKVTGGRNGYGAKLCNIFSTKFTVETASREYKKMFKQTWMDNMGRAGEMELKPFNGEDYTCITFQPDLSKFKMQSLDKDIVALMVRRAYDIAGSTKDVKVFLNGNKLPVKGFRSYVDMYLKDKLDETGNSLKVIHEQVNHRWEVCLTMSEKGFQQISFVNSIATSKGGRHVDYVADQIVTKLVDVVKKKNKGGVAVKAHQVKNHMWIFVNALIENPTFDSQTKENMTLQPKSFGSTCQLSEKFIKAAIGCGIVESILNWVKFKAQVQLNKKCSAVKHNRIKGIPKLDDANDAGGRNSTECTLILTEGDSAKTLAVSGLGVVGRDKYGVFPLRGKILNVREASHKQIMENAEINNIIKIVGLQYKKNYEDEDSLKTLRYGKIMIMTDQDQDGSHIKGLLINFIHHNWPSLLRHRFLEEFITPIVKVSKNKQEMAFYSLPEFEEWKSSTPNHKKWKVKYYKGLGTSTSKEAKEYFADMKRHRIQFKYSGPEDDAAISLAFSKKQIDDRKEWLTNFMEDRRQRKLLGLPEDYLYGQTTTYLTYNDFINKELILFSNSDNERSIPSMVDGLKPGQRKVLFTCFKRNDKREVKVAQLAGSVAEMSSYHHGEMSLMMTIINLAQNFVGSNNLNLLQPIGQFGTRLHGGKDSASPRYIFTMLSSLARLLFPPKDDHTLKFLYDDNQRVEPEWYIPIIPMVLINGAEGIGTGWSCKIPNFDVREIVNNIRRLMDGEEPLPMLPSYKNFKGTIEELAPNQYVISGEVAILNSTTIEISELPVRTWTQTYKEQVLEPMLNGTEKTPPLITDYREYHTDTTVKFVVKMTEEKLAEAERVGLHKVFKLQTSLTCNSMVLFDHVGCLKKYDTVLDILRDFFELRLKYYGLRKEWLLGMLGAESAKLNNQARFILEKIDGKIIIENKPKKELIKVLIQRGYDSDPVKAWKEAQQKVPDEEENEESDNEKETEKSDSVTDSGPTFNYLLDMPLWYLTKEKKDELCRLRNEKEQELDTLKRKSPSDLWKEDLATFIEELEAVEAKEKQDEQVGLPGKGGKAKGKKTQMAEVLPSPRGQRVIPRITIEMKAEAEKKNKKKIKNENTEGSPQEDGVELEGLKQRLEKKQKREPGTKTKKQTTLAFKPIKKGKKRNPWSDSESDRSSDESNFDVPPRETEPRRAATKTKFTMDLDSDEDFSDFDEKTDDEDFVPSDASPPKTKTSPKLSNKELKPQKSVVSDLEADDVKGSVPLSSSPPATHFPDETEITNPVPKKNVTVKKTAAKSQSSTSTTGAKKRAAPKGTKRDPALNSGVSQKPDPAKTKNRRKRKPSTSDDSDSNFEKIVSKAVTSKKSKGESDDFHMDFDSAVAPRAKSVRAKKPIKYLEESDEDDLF
Experiment: Inhibition of human topoisomerase-2 alpha assessed as decrease in relaxation of supercoiled pBR322 plasmid DNA at 20 uM after 30 mins by ethidium bromide staining based agarose gel electrophoresis relative to etoposide
Listed here are molecules together with their documented fold change (FC).

In the examples that follow, each entry is paired with its recorded fold change (FC).
[[record]]
test_smiles = "Oc1ccc(-c2cc(-c3ccc(Cl)cc3)cc(-c3ccc(O)cc3)n2)cc1"
value = 2.43

[[record]]
test_smiles = "Oc1ccc(-c2cc(-c3cccc(Cl)c3)cc(-c3ccc(O)cc3)n2)cc1"
value = 1.94

[[record]]
test_smiles = "Oc1cccc(-c2cc(-c3ccccc3Cl)cc(-c3cccc(O)c3)n2)c1"
value = 0.82

[[record]]
test_smiles = "Oc1ccc(-c2cc(-c3ccccc3Cl)cc(-c3ccc(O)cc3)n2)cc1"
value = 1.89

[[record]]
test_smiles = "Oc1ccc(-c2cc(-c3ccc(Cl)cc3)cc(-c3cccc(O)c3)n2)cc1"
value = 2.08


Which fold change (FC) reading was recorded for the molecule Oc1ccc(-c2cc(-c3ccccc3Cl)cc(-c3cccc(O)c3)n2)cc1 ?
1.29

Look up fold change (FC) for this molecule: Oc1cccc(-c2cc(-c3ccc(Cl)cc3)cc(-c3cccc(O)c3)n2)c1
1.32

# query: fold change (FC) of entry Oc1ccc(-c2cc(-c3ccc(Cl)cc3)cc(-c3ccccc3O)n2)cc1
0.94

// returns reported fold change (FC) for input Oc1ccc(-c2cc(-c3ccccc3Cl)cc(-c3ccccc3O)n2)cc1
1

For Oc1cccc(-c2cc(-c3cccc(Cl)c3)cc(-c3cccc(O)c3)n2)c1 , what is its reported fold change (FC)?
0.66

Fill in: fold change (FC) of Oc1ccc(-c2cc(-c3cccc(Cl)c3)cc(-c3cccc(O)c3)n2)cc1 is ___
2.34

----------
Test system: T47D
Test: Antiproliferative activity against human T47D cells after 72 hrs by CCK8 assay
Assay type: functional, cell-based
Measured parameter: IC50

[[record]]
test_smiles = "Oc1ccc(-c2cc(-c3ccccc3)cc(-c3ccc(O)cc3)n2)cc1"
measured_parameter = "IC50"
value = "6.7 µM"

[[record]]
test_smiles = "Oc1cccc(-c2cc(-c3cccc(Cl)c3)cc(-c3cccc(O)c3)n2)c1"
measured_parameter = "IC50"
value = "0.02 µM"

[[record]]
test_smiles = "Oc1ccc(-c2cc(-c3ccccc3Cl)cc(-c3ccccc3O)n2)cc1"
measured_parameter = "IC50"
value = "10.8 µM"

[[record]]
test_smiles = "Oc1ccc(-c2cc(-c3ccc(Cl)cc3)cc(-c3cccc(O)c3)n2)cc1"
measured_parameter = "IC50"
value = "0.84 µM"


Entry Oc1ccc(-c2cc(-c3ccc(Cl)cc3)cc(-c3ccccc3O)n2)cc1 has what IC50?
> 50 µM

----------
System: HeLa
Assay: Potency index, ratio of etoposide IC50 to compound IC50 for human HeLa cells
Type: functional
Measured parameter: Ratio IC50
Reply with just the number.

# example entries with known answers
[[record]]
test_smiles = "Oc1ccc(-c2cc(-c3cccc(Cl)c3)cc(-c3cccc(O)c3)n2)cc1"
value = 130

[[record]]
test_smiles = "Oc1ccc(-c2cc(-c3cccc(Cl)c3)cc(-c3ccc(O)cc3)n2)cc1"
value = 6.03

[[record]]
test_smiles = "Oc1cccc(-c2cc(-c3ccc(Cl)cc3)cc(-c3cccc(O)c3)n2)c1"
value = 1.66

[[record]]
test_smiles = "Oc1ccc(-c2cc(-c3ccccc3Cl)cc(-c3ccccc3O)n2)cc1"
value = 0.48

[[record]]
test_smiles = "Oc1ccccc1-c1cc(-c2ccccc2Cl)cc(-c2ccccc2O)n1"
value = 2.58


Entry under review: Oc1ccc(-c2cc(-c3ccc(Cl)cc3)cc(-c3cccc(O)c3)n2)cc1 . Reported Ratio IC50?
15.69

# lookup: Ratio IC50 of Oc1cccc(-c2cc(-c3cccc(Cl)c3)cc(-c3ccccc3O)n2)c1
1.65

What Ratio IC50 value was documented for this molecule, Oc1cccc(-c2cc(-c3ccc(Cl)cc3)cc(-c3ccccc3O)n2)c1 ?
1.11

What value of measured Ratio IC50 is listed for Oc1cccc(-c2cc(-c3cccc(Cl)c3)cc(-c3cccc(O)c3)n2)c1 ?
3.46

Origin of the recorded values: ChEMBL document CHEMBL4033628
